Assay: Acute toxicity in mice
Format: in vivo
Conditions: mouse, in vivo, ip, 2500 mg/kg, read-out: % Death

[
  {
    "compound": "COc1cc(C(=O)SC(C)C(=O)NCC(=O)O)cc(OC)c1OC (stereo not shown) [TBPG]",
    "unit_of_measure": "%",
    "mortality at 240 h": 50
  }
]

---

Assay: Isothermic (accelerated) stability according to the method of Garret, TLC
Type: physicochemical
Conditions: Powder, 80°, 180 hours; read-out: Chromatographic Impurities

[
  {
    "molecule": "CC(S)C(=O)NCC(=O)O (stereo not drawn) [α-mercaptopropionylglycine, 2-mercaptopropionylglycine]",
    "unit_of_measure": "%",
    "degraded at 180 h": 2
  }
]

---

Test: Acute toxicity in rats
Assay type: in vivo
Conditions: rat, in vivo, po, orally, 5000 mg/kg, read-out: % Death

[
  {
    "molecule": "COc1cc(C(=O)SC(C)C(=O)NCC(=O)O)cc(OC)c1OC (stereo not shown) [TBPG]",
    "mortality at 240 h (%)": 45
  }
]

---

Assay: Acute toxicity in rats
Assay type: in vivo
Conditions: rat, in vivo, po, orally, 10 days observation, probits, 95% limits (4879-5873), read-out: DL50 mg/kg (Confidential Limits)

[
  {
    "compound": "COc1cc(C(=O)SC(C)C(=O)NCC(=O)O)cc(OC)c1OC (stereo not shown)",
    "LD50 at 240 h": "5230 mg/kg"
  }
]

---

Assay: Isothermic (accelerated) stability according to the method of Garret, TLC
Type: physicochemical
Details: Powder, 70°, 480 hours; read-out: Chromatographic Impurities

[
  {
    "compound": "CC(S)C(=O)NCC(=O)O (stereo not drawn) [α-mercaptopropionylglycine, 2-mercaptopropionylglycine]",
    "degraded at 480 h / %": 2
  }
]

---

Test: Isothermic (accelerated) stability according to the method of Garret, TLC
Format: physicochemical
Conditions: Solution (500 mg in 10 cc water), 70°, 480 hours; read-out: Chromatographic Impurities

[
  {
    "molecule": "CC(S)C(=O)NCC(=O)O (centres unmarked)",
    "degraded at 480 h (%)": 2.5
  },
  {
    "molecule": "COc1cc(C(=O)SC(C)C(=O)NCC(=O)O)cc(OC)c1OC (centres unmarked)",
    "degraded at 480 h (%)": 1.2
  }
]

---

Test: Isothermic (accelerated) stability according to the method of Garret, TLC
Assay type: physicochemical
Settings: Solution (500 mg in 10 cc water), 70°, 180 hours; read-out: Chromatographic Impurities

[
  {
    "molecule": "CC(S)C(=O)NCC(=O)O (stereo not drawn) [α-mercaptopropionylglycine, 2-mercaptopropionylglycine]",
    "unit_of_measure": "%",
    "degraded at 180 h": 1
  }
]

---

Assay: Acute toxicity in mice
Type: in vivo
Settings: mouse, in vivo, po, orally, 5000 mg/kg, read-out: % Death
quantity_kind: mortality at 240 h (%)

[
  {
    "compound": "COc1cc(C(=O)SC(C)C(=O)NCC(=O)O)cc(OC)c1OC (stereo not shown) [TBPG]",
    "quantity_kind": "mortality at 240 h",
    "unit_of_measure": "%",
    "recorded_measurement": 50
  }
]

---

Test: Acute toxicity in rats
Assay type: in vivo
Conditions: rat, in vivo, po, orally, 6000 mg/kg, read-out: % Death
Protocol: The acute toxicity has been studied with Swiss albino rats and Wistar albino rats and in both instances, animals of both sexes have been used. […] The values of DL50 by the statistical method with confidential limits up to 95% are calculated by means of the method of probits reported in Table I. Probits is a statistical unit of probable deviation used in biological assays; equal to the normal equivalent deviate increased by 5, used to make all normal equivalent deviation values positive.

[
  {
    "compound": "COc1cc(C(=O)SC(C)C(=O)NCC(=O)O)cc(OC)c1OC (stereo not shown)",
    "unit_of_measure": "%",
    "mortality at 240 h": 60
  }
]

---

Assay: Acute toxicity in mice
Type: in vivo
Conditions: mouse, in vivo, po, orally, 10 days observation, probits, 95% limits (4539-5254), read-out: DL50 mg/kg (Confidential Limits)
quantity_kind: LD50 at 240 h (mg/kg)

[
  {
    "compound": "COc1cc(C(=O)SC(C)C(=O)NCC(=O)O)cc(OC)c1OC (stereo not shown)",
    "quantity_kind": "LD50 at 240 h",
    "unit_of_measure": "mg/kg",
    "recorded_measurement": 4860
  }
]

---

Assay: Isothermic (accelerated) stability according to the method of Garret, TLC
Type: physicochemical
Conditions: Solution (500 mg in 10 cc water), 80°, 90 hours; read-out: Chromatographic Impurities
quantity_kind: degraded at 90 h

[
  {
    "compound": "CC(S)C(=O)NCC(=O)O (centres unmarked)",
    "quantity_kind": "degraded at 90 h",
    "recorded_measurement": "2.5%"
  },
  {
    "compound": "COc1cc(C(=O)SC(C)C(=O)NCC(=O)O)cc(OC)c1OC (centres unmarked)",
    "quantity_kind": "degraded at 90 h",
    "recorded_measurement": "1.2%"
  }
]

---

Experiment: Isothermic (accelerated) stability according to the method of Garret, TLC
Type: physicochemical
Conditions: Powder, 60°, 1600 hours; read-out: Chromatographic Impurities
quantity_kind: degraded at 1600 h (%)

[
  {
    "compound": "CC(S)C(=O)NCC(=O)O (stereo not shown)",
    "quantity_kind": "degraded at 1600 h",
    "unit_of_measure": "%",
    "recorded_measurement": 2
  }
]

---

Assay: Isothermic (accelerated) stability according to the method of Garret, TLC
Format: physicochemical
Conditions: Solution (500 mg in 10 cc water), 80°, 120 hours; read-out: Chromatographic Impurities
# key: entry, value: degraded at 120 h

[
  {
    "compound": "COc1cc(C(=O)SC(C)C(=O)NCC(=O)O)cc(OC)c1OC (centres unmarked) [TBPG]",
    "unit_of_measure": "%",
    "degraded at 120 h": 1.3
  },
  {
    "compound": "CC(S)C(=O)NCC(=O)O (stereo not drawn) [α-mercaptopropionylglycine, 2-mercaptopropionylglycine]",
    "unit_of_measure": "%",
    "degraded at 120 h": 1.5
  }
]

---

Experiment: Acute toxicity in rats
Assay type: in vivo
Details: rat, in vivo, ip, 2500 mg/kg, read-out: % Death

[
  {
    "compound": "COc1cc(C(=O)SC(C)C(=O)NCC(=O)O)cc(OC)c1OC (stereo not shown) [TBPG]",
    "unit_of_measure": "%",
    "mortality at 240 h": 45
  }
]

---

Assay: Acute toxicity in rats
Format: in vivo
Settings: rat, in vivo, ip, 10 days observation, probits, 95% limits (2483-2887), read-out: DL50 mg/kg (Confidential Limits)

[
  {
    "compound": "COc1cc(C(=O)SC(C)C(=O)NCC(=O)O)cc(OC)c1OC (stereo not shown)",
    "LD50 at 240 h [mg/kg]": 2670
  }
]

---

Assay: Acute toxicity in rats
Assay type: in vivo
Conditions: rat, in vivo, po, orally, 4000 mg/kg, read-out: % Death

[
  {
    "molecule": "COc1cc(C(=O)SC(C)C(=O)NCC(=O)O)cc(OC)c1OC (stereo not shown)",
    "mortality at 240 h": "30%"
  }
]

---

Experiment: Acute toxicity in mice
Format: in vivo
Conditions: mouse, in vivo, po, orally, 4000 mg/kg, read-out: % Death

[
  {
    "compound": "COc1cc(C(=O)SC(C)C(=O)NCC(=O)O)cc(OC)c1OC (stereo not shown)",
    "mortality at 240 h, %": 30
  }
]

---

Assay: Isothermic (accelerated) stability according to the method of Garret, TLC
Assay type: physicochemical
Settings: Powder, 80°, 90 hours; read-out: Chromatographic Impurities
Description: The tests of accelerated stability have been carried out with the substance in powder form, that is in glass vials, hermetically closed with a plastic screw cap and also with the substance dissolved in water, that is 500 mg in 10 cc in a transparent glass container of 20 cc capacity closed with a plastic screw cap. The production of impurities, if any, due to degradation of the substance, has been determined by means of TLC.

[
  {
    "compound": "CC(S)C(=O)NCC(=O)O (stereo not drawn) [α-mercaptopropionylglycine, 2-mercaptopropionylglycine]",
    "degraded at 90 h": "1%"
  }
]

---

Assay: Acute toxicity in mice
Format: in vivo
Settings: mouse, in vivo, ip, 1500 mg/kg, read-out: % Death

[
  {
    "compound": "COc1cc(C(=O)SC(C)C(=O)NCC(=O)O)cc(OC)c1OC (stereo not shown)",
    "mortality at 240 h (%)": 0
  }
]

The reported numbers originate from patent US4328242A.
